system: Renilla luciferase RNA; assay: Barcoded aptazyme variant library screen: un-cleaved Renilla luciferase RNA by barcode read counts, HEK293-T cells; assay type: cell-based; settings: un-cleaved Renilla luciferase RNA by barcode read counts; with 1 mM theophylline (ON) over without theophylline (OFF); HEK293-T cells; triplicate
Recorded Fold change in RNA expression between the ON state and the OFF state, one value per entry.
Lab note: write the figure by itself, no unit.

Examples with answers:
RA390 (nucleic acid, expressed or natural sequence) DNA: GCGCGTCCGGAATACCAGCATCGTCTTGATGCCCTTGGAAGTCCGGCCTGGATTCGCGGAAACGCGTACATCCAGCTGACGAGTCCCAAATAGGACGAAACGCGC    0.7
RA455 (nucleic acid, expressed or natural sequence) DNA: GCGCGTCCTGGATTCGCGGAAACGCGTACATCCAGCTGACGAGTCCCCGGAATACCAGCATCGTCTTGATGCCCTTGGAAGTCCGGCAAATAGGACGAAACGCGC    0.5
RA416 (nucleic acid, expressed or natural sequence) DNA: GCGCGTCCTGGACGGAATACCAGCATCGTCTTGATGCCCTTGGAAGTCCGTTCGCGGAAACGCGTACATCCAGCTGACGAGTCCCAAATAGGACGAAACGCGC    0.7
RA419 (nucleic acid, expressed or natural sequence) DNA: GCGCGTCCTGGATTCGCGGAAACGCGTACATCCAGCTGACGAGTCCCAAATAGGACGAAAGAATACCAGCATCGTCTTGATGCCCTTGGAAGTCTACGCGC    0.7
RA308 (nucleic acid, expressed or natural sequence) DNA: GCGCGTCCTGGATTCGCGGAAACGCGTACATCCAGCAGTGATACCAGCATCGTCTTGATGCCCTTGGCAGCACTTGACGAGTCCCAAATAGGACGAAACGCGC    1.0

Memo: RA471 (nucleic acid, expressed or natural sequence) DNA: GCGCGTCCTGGATTCGCGGAAACGCGTACATCCAGCTGACGAGTCCCAAATAGGACCGAGAATACCAGCATCGTCTTGATGCCCTTGGAAGTCTCGGAAACGCGC , reported Fold change in RNA expression between the ON state and the OFF state: 0.4

Lab book: Fold change in RNA expression between the ON state and the OFF state of RA378 (nucleic acid, expressed or natural sequence) DNA: GCGCGTCCTGGATTCGCGGAAACGCGTACATCCCGGAATACCAGCATCGTCTTGATGCCCTTGGAAGTCCGGCAGCTGACGAGTCCCAAATAGGACGAAACGCGC noted as 0.8
